Values were extracted from patent US20190375778A1.

system: HL-60; test: CellTiterGlo viability assay, HL-60; assay type: cell-based; settings: Homo sapiens, HL-60; read-out: Ab EC50 (μM) HL-60
Quantity measured: EC50
Number first, unit second.

Inquiry: EC50 of Nc1ncnc2c1nc(Cl)n2[C@@H]1O[C@H](CO)[C@@H](O)[C@H]1O [8-chloroadenosine, 8-Chloroadenosine, reference compound] on HL-60?
Reply text: 10.2 µM

====

tested on: MiaPaCa-2; assay: CellTiterGlo viability assay, MiaPaCa-2; format: cell-based; conditions: Homo sapiens, MIA PaCa-2; read-out: Ab EC50 (μM) MiaPa-Ca-2
Quantity measured: EC50 (µM)
Entry rule: numbers only, all in µM.

Inquiry: Given the compound Nc1ncnc2c1nc(Cl)n2[C@@H]1O[C@H](CO)[C@@H](O)[C@H]1O [8-chloroadenosine, 8-Chloroadenosine, reference compound] , what is its reported EC50?
Reply text: 0.44

====

Below, each entry is listed with its recorded LD50.
test system: KG1a cell line; assay: Annexin V/propidium iodide cytotoxicity, KG1a unsorted; type: cell-based; conditions: Homo sapiens, KG-1a; Annexin V/propidium iodide, 72 hrs
Entry rule: numbers only, all in nM.

As a guide, the following entries are already answered.
[
  {
    "Molecule": "C[C@H](NP(=O)(OC[C@H]1O[C@@H](n2cnc3c(N)nc(Cl)nc32)CC1O)Oc1cccc2ccccc12)C(=O)OCc1ccccc1 (stereo partly drawn) [Comparative compound 2]",
    "Measured on": "KG1a cell line",
    "LD50, nM": 820
  },
  {
    "Molecule": "CCCCCOC(=O)[C@H](C)NP(=O)(OC[C@H]1O[C@@H](n2c(Cl)nc3c(N)ncnc32)C(O)C1O)Oc1cccc2ccccc12 (stereo partly drawn) [Compound E]",
    "Measured on": "KG1a cell line",
    "LD50, nM": 20000
  }
]

Inquiry: Given the molecule C[C@H](NP(=O)(OC[C@H]1O[C@@H](n2c(Cl)nc3c(N)ncnc32)[C@H](O)[C@@H]1O)Oc1ccccc1)C(=O)OCc1ccccc1 (mixture of isomers) [C] , what is its reported LD50?
Reply text: 1600

Inquiry: Given the molecule C[C@H](NP(=O)(OC[C@H]1O[C@@H](n2cnc3c(N)nc(Cl)nc32)[C@H](F)C1O)Oc1cccc2ccccc12)C(=O)OCc1ccccc1 (stereo partly drawn) [Comparative compound 1] , what is its reported LD50?
Reply text: 140

Inquiry: Given the molecule Nc1ncnc2c1nc(Cl)n2[C@@H]1O[C@H](COP(=O)(NCC(=O)OCc2ccccc2)Oc2ccccc2)[C@@H](O)[C@H]1O (mixture of isomers) [Compound B] , what is its reported LD50?
Reply text: 7100

Inquiry: Given the molecule C[C@H](NP(=O)(OC[C@H]1O[C@@H](n2c(Cl)nc3c(N)ncnc32)C(O)C1O)Oc1cccc2ccccc12)C(=O)OCc1ccccc1 (stereo partly drawn) [Compound D] , what is its reported LD50?
Reply text: 3800

====

Below, each entry is listed with its recorded IC50.
tested on: HepG2; test: CellTiterGlo viability assay, HepG2; assay type: cell-based; settings: Homo sapiens, HepG2, 72 h, read-out: IC50 HepG2

As a guide, the following entries are already answered.
[
  {
    "Molecule": "Nc1ncnc2c1nc(Cl)n2[C@@H]1O[C@H](COP(=O)(NCC(=O)OC2CCCCC2)Oc2ccccc2)[C@@H](O)[C@H]1O (mixture of isomers)",
    "Measured on": "HepG2",
    "Observed value": "5 to 15 µM"
  },
  {
    "Molecule": "Nc1ncnc2c1nc(Cl)n2[C@@H]1O[C@H](COP(=O)(NCC(=O)OCc2ccccc2)Oc2ccccc2)[C@@H](O)[C@H]1O (mixture of isomers)",
    "Measured on": "HepG2",
    "Observed value": "0.1 to 5 µM"
  },
  {
    "Molecule": "C[C@H](NP(=O)(OC[C@H]1O[C@@H](n2c(Cl)nc3c(N)ncnc32)C(O)C1O)Oc1cccc2ccccc12)C(=O)OCc1ccccc1 (stereo partly drawn)",
    "Measured on": "HepG2",
    "Observed value": "0.1 to 5 µM"
  },
  {
    "Molecule": "CC(C)C[C@H](NP(=O)(OC[C@H]1O[C@@H](n2c(Cl)nc3c(N)ncnc32)C(O)C1O)Oc1ccccc1)C(=O)OCc1ccccc1 (stereo partly drawn)",
    "Measured on": "HepG2",
    "Observed value": "0.1 to 5 µM"
  },
  {
    "Molecule": "C[C@H](NP(=O)(OC[C@H]1O[C@@H](n2c(Cl)nc3c(N)ncnc32)[C@H](O)[C@@H]1O)Oc1ccccc1)C(=O)OCc1ccccc1 (mixture of isomers)",
    "Measured on": "HepG2",
    "Observed value": "15 to 100 µM"
  }
]

Note: attention shifts to another entry.
Inquiry: Given the molecule CCCCCOC(=O)[C@H](C)NP(=O)(OC[C@H]1O[C@@H](n2c(Cl)nc3c(N)ncnc32)C(O)C1O)Oc1cccc2ccccc12 (stereo partly drawn) , what is its reported IC50?
Reply text: 0.1 to 5 µM

====

tested on: HT29; assay: CellTiterGlo viability assay, HT29; format: cell-based; conditions: Homo sapiens, HT-29; read-out: Ab EC50 (μM) HT29
Quantity measured: EC50 (µM)
Entry rule: numbers only, all in µM.

Inquiry: EC50 of Nc1ncnc2c1nc(Cl)n2[C@@H]1O[C@H](CO)[C@@H](O)[C@H]1O [8-chloroadenosine, 8-Chloroadenosine, reference compound] on HT29?
Reply text: 1.35

====

tested on: human T-lymphocyte CEM; assay: Cell proliferation (Coulter count) assay, CEM; type: cell-based; details: 72 h, read-out: absolute IC50, CEM
pIC50: −log10 of the molar value.
Quantity measured: pIC50

As a guide, the following entries are already answered.
[
  {
    "Compound": "CC(C)(C)COC(=O)C(C)(C)NP(=O)(OC[C@H]1O[C@@H](n2c(Cl)nc3c(N)ncnc32)C(O)C1O)Oc1ccccc1 (stereo partly drawn)",
    "Measured on": "human T-lymphocyte CEM",
    "pIC50": "4.00 to 4.82"
  },
  {
    "Compound": "Nc1ncnc2c1nc(Cl)n2[C@@H]1O[C@H](COP(=O)(NCC(=O)OCc2ccccc2)Oc2cccc3ccccc23)C(O)C1O (stereo partly drawn)",
    "Measured on": "human T-lymphocyte CEM",
    "pIC50": "5.30 to 7.00"
  }
]

Note: attention shifts to another entry.
Inquiry: Given the compound COC(=O)[C@H](CCSC)NP(=O)(OC[C@H]1O[C@@H](n2c(Cl)nc3c(N)ncnc32)C(O)C1O)Oc1ccccc1 (stereo partly drawn) , what is its reported pIC50?
Reply text: 4.00 to 4.82

====

test system: human T-lymphocyte CEM; assay: Cell proliferation (Coulter count) assay, CEM; format: cell-based; conditions: 72 h, read-out: absolute IC50, CEM
pIC50: −log10 of the molar value.
Below, each entry is listed with its recorded pIC50.

[
  {
    "Compound": "CCCCCOC(=O)[C@H](CC(C)C)NP(=O)(OC[C@H]1O[C@@H](n2c(Cl)nc3c(N)ncnc32)C(O)C1O)Oc1cccc2ccccc12 (some centres unmarked) [I]",
    "Measured on": "human T-lymphocyte CEM",
    "pIC50": "4.82 to 5.30"
  },
  {
    "Compound": "CCCCCOC(=O)[C@H](Cc1ccccc1)NP(=O)(OC[C@H]1O[C@@H](n2c(Cl)nc3c(N)ncnc32)C(O)C1O)Oc1cccc2ccccc12 (some centres unmarked) [Q]",
    "Measured on": "human T-lymphocyte CEM",
    "pIC50": "5.30 to 7.00"
  },
  {
    "Compound": "CC(C)C[C@H](NP(=O)(OC[C@H]1O[C@@H](n2c(Cl)nc3c(N)ncnc32)C(O)C1O)Oc1cccc2ccccc12)C(=O)OCc1ccccc1 (some centres unmarked) [H]",
    "Measured on": "human T-lymphocyte CEM",
    "pIC50": "5.30 to 7.00"
  },
  {
    "Compound": "C[C@H](NP(=O)(OC[C@H]1O[C@@H](n2c(Cl)nc3c(N)ncnc32)C(O)C1O)Oc1cccc2ccccc12)C(=O)OCc1ccccc1 (some centres unmarked) [Compound D]",
    "Measured on": "human T-lymphocyte CEM",
    "pIC50": "5.30 to 7.00"
  },
  {
    "Compound": "Nc1ncnc2c1nc(Cl)n2[C@@H]1O[C@H](COP(=O)(NCC(=O)OC2CCCCC2)Oc2ccccc2)[C@@H](O)[C@H]1O (mixture of isomers) [Compound A]",
    "Measured on": "human T-lymphocyte CEM",
    "pIC50": "4.00 to 4.82"
  },
  {
    "Compound": "CC(C)OC(=O)[C@H](C)NP(=O)(OC[C@H]1O[C@@H](n2c(Cl)nc3c(N)ncnc32)C(O)C1O)Oc1ccccc1 (some centres unmarked) [W]",
    "Measured on": "human T-lymphocyte CEM",
    "pIC50": "4.00 to 4.82"
  },
  {
    "Compound": "Nc1ncnc2c1nc(Cl)n2[C@@H]1O[C@H](COP(=O)(N[C@@H](Cc2ccccc2)C(=O)OC2CCCCC2)Oc2cccc3ccccc23)C(O)C1O (some centres unmarked) [R]",
    "Measured on": "human T-lymphocyte CEM",
    "pIC50": "4.82 to 5.30"
  },
  {
    "Compound": "Nc1ncnc2c1nc(Cl)n2[C@@H]1O[C@H](COP(=O)(N[C@@H](Cc2ccccc2)C(=O)OCc2ccccc2)Oc2cccc3ccccc23)C(O)C1O (some centres unmarked) [P]",
    "Measured on": "human T-lymphocyte CEM",
    "pIC50": "5.30 to 7.00"
  },
  {
    "Compound": "Nc1ncnc2c1nc(Cl)n2[C@@H]1O[C@H](CO)[C@@H](O)[C@H]1O [8-chloroadenosine, 8-Chloroadenosine, reference compound]",
    "Measured on": "human T-lymphocyte CEM",
    "pIC50": "5.30 to 7.00"
  },
  {
    "Compound": "CCCCCOC(=O)CNP(=O)(OC[C@H]1O[C@@H](n2c(Cl)nc3c(N)ncnc32)C(O)C1O)Oc1cccc2ccccc12 (some centres unmarked) [O]",
    "Measured on": "human T-lymphocyte CEM",
    "pIC50": "5.30 to 7.00"
  }
]

Note: attention shifts to another entry.
Inquiry: Given the compound C[C@H](NP(=O)(OC[C@H]1O[C@@H](n2c(Cl)nc3c(N)ncnc32)[C@H](O)[C@@H]1O)Oc1ccccc1)C(=O)OCc1ccccc1 (mixture of isomers) [C] , what is its reported pIC50?
Reply text: 4.00 to 4.82
